Each entry below carries its recorded growth sensitivity score.
tested on: S. cerevisiae AD1-9 (efflux-pump deficient), vegetative growth in YPD; assay: growth sensitivity score (doubling time z-score vs DMSO controls); higher = slower growth, strongly negative scores also mark growth inhibition (complete suppression), active = hit call of the paper
Counter-ions that a name gives are not always drawn.
assayMetric: growth sensitivity score

| compound | observedMeasurement |
| --- | --- |
| CCC1=C[C@H]2CN(C1)Cc1c([nH]c3ccccc13)[C@@](C(=O)OC)(c1cc3c(cc1OC)N(C)[C@H]1[C@@](O)(C(=O)OC)[C@H](OC(C)=O)[C@]4(CC)C=CCN5CC[C@]31[C@@H]54)C2 [Vinorelbine bitatrate] (stock concentration (mM, diluted 1:100): 7.2) | -3.29 |
| CC[N+](C)(CC)CCOC(=O)C(O)(c1ccccc1)C1CCCCC1 (centres undefined) [Oxyphenonium bromide] (stock concentration (mM, diluted 1:100): 10) | -1.02 |
| O=C1c2c(O)cc(O)cc2OC(c2ccc(O)c(O)c2)C1O (centres undefined) [Taxifolin] (stock concentration (mM, diluted 1:100): 10) | -0.46 |
| C=CC[C@@H]1/C=C(\C)C[C@H](C)C[C@H](OC)[C@H]2O[C@@](O)(C(=O)C(=O)N3CCCC[C@H]3C(=O)O[C@H](/C(C)=C/[C@@H]3CC[C@@H](O)[C@H](OC)C3)[C@H](C)[C@@H](O)CC1=O)[C@H](C)C[C@@H]2OC [Tacrolimus] (stock concentration (mM, diluted 1:100): 10) | 20.9 |
| CCC(=O)NS(=O)(=O)c1ccc(-c2c(-c3ccccc3)noc2C)cc1 [Parecoxib] (stock concentration (mM, diluted 1:100): 9.8) | 0.73 |
| CN(C)CCC(c1ccc(Cl)cc1)c1ccccn1 (centres undefined) [Chlorpheniramine] (stock concentration (mM, diluted 1:100): 10) | -0.6 |
| CCC(=O)O[C@]1(C(=O)SCF)[C@H](C)C[C@H]2[C@@H]3C[C@H](F)C4=CC(=O)C=C[C@]4(C)[C@@]3(F)[C@@H](O)C[C@@]21C [Fluticasone propionate] (stock concentration (mM, diluted 1:100): 10) | -1.65 |
| CN(C)CCC[C@@]1(c2ccc(F)cc2)OCc2cc(C#N)ccc21 [Escitalopram oxalate] (stock concentration (mM, diluted 1:100): 7.9) | -1.47 |
| Clc1ccc2c(c1)CCc1cccnc1C2=C1CCNCC1 [Desloratadine] (stock concentration (mM, diluted 1:100): 10) | 60.1 |

Source: the supplement of paper PMC3414501
